assayedTarget: Wee1-like protein kinase (Homo sapiens); further: in the data inactive means no Kd found up to 30 µM
Active and inactive are the calls of the source.
// values below are reported Kd

The cases that follow already have their Kd on record.
INSERT INTO results (compound, metric, reportedmeasurement) VALUES
  ('COc1cc2nccc(Oc3ccc(NC(=O)C4(C(=O)Nc5ccc(F)cc5)CC4)cc3)c2cc1OC [CABOZANTINIB]', 'Kd', '> 30 µM (inactive)'),
  ('C=CC(=O)Nc1cccc(Nc2nc(Nc3ccc(N4CCN(C(C)=O)CC4)cc3OC)ncc2C(F)(F)F)c1', 'Kd', '> 30 µM (inactive)');

Could you tell me which Kd is on file for C=CCN(/C=C1/C(=O)O[C@H](COC)[C@@]2(C)C1=C(O)C(=O)C1=C2[C@H](OC(C)=O)C[C@]2(C)C(=O)CC[C@@H]12)CC=C ?
> 30 µM (inactive)

What does the data say about its Kd? Entry: NC(=O)c1ccc(N(C(N)=O)c2c(F)cccc2F)nc1-c1ccc(F)cc1F
> 30 µM (inactive)

====

assayedTarget: Tyrosine-protein kinase HCK (Homo sapiens); further: in the data inactive means no Kd found up to 30 µM
Sequence (P08631 whole entry): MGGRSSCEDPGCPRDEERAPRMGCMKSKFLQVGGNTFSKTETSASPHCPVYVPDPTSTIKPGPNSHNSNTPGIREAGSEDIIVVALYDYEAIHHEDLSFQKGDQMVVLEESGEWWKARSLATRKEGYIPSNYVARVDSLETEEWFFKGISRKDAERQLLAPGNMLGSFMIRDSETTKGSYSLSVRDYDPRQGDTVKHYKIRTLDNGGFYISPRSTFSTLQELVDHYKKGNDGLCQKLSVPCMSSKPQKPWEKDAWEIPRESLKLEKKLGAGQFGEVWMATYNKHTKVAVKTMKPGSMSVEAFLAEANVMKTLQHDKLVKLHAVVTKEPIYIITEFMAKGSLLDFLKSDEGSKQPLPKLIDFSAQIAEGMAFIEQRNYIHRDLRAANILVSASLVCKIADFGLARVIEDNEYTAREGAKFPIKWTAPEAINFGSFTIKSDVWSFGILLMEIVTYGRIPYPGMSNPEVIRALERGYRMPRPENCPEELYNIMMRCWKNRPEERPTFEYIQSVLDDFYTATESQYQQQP
Calls of active or inactive are those of the source.
Pick from active, inactive when you respond.

Would you please look over these solved cases?
INSERT INTO measurements (compound, labelvalue) VALUES
  ('COc1cc2ncnc(Nc3ccc(F)c(Cl)c3)c2cc1NC(=O)/C=C/CN1CCCCC1 [DACOMITINIB ANHYDROUS]', 'inactive'),
  ('Cc1c(Cn2c(C)nc3c(C(=O)O)cc(N4CCOCC4)cc32)cccc1C(F)(F)F', 'inactive'),
  ('CNC(=O)c1cccc(-c2ccc3c(N4CCOC[C@@H]4C)nc(N4CCOC[C@@H]4C)nc3n2)c1', 'inactive'),
  ('COc1cc2ncnc3c2cc1OCCCCCN(C)Cc1ccc(Br)cc1N3', 'inactive'),
  ('C=CCn1c(=O)c2cnc(Nc3ccc(N4CCN(C)CC4)cc3)nc2n1-c1cccc(C(C)(C)O)n1', 'inactive'),
  ('NC(=O)c1ccc(N(C(N)=O)c2c(F)cccc2F)nc1-c1ccc(F)cc1F', 'inactive'),
  ('O=C(NOC[C@H](O)CO)c1ccc(F)c(F)c1Nc1ccc(I)cc1F', 'inactive'),
  ('NC[C@@](O)(c1ccc(Cl)cc1)c1ccc(-c2cn[nH]c2)cc1', 'inactive'),
  ('C=CC(=O)Nc1cc(Nc2nccc(-c3cn(C)c4ccccc34)n2)c(OC)cc1N(C)CCN(C)C', 'inactive'),
  ('COc1cc(F)c(F)c(Nc2ccc(I)cc2F)c1NS(=O)(=O)C1(C[C@H](O)CO)CC1', 'inactive');

Would you mind telling me which call this test gave COc1cc(Nc2ncc(F)c(Nc3ccc4c(n3)N(COP(=O)(O)O)C(=O)C(C)(C)O4)n2)cc(OC)c1OC ?
inactive

====

In this section, each of the compounds is paired with its reported Kd.
assayedTarget: Membrane-associated tyrosine- and threonine-specific cdc2-inhibitory kinase (Homo sapiens); further: in the data inactive means no Kd found up to 30 µM
Sequence (Q99640 whole entry): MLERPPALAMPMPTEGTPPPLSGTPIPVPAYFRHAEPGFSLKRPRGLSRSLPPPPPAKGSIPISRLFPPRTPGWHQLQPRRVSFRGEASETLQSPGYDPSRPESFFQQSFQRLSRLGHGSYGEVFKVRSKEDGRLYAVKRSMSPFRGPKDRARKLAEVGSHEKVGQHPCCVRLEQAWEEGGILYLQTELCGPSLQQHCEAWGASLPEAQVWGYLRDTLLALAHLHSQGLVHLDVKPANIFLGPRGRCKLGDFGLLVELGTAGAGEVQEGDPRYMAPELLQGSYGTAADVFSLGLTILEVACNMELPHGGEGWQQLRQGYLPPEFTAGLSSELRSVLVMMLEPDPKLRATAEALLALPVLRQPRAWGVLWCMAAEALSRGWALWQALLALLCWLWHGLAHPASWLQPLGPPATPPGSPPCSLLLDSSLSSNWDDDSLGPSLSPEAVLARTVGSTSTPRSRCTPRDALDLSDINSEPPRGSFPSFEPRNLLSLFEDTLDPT
Calls of active or inactive are those of the source.

INSERT INTO results (compound, assayedtarget, metric, reportedmeasurement) VALUES
  ('C=CCN(/C=C1/C(=O)O[C@H](COC)[C@@]2(C)C1=C(O)C(=O)C1=C2[C@H](OC(C)=O)C[C@]2(C)C(=O)CC[C@@H]12)CC=C [SONOLISIB]', 'Membrane-associated tyrosine- and threonine-specific cdc2-inhibitory kinase (Homo sapiens)', 'Kd', '> 30 µM (inactive)'),
  ('COc1cc2nccc(Oc3ccc(NC(=O)C4(C(=O)Nc5ccc(F)cc5)CC4)cc3)c2cc1OC [CABOZANTINIB]', 'Membrane-associated tyrosine- and threonine-specific cdc2-inhibitory kinase (Homo sapiens)', 'Kd', '> 30 µM (inactive)'),
  ('Cn1c(=O)c(F)c(Nc2ccc(I)cc2F)c2c(=O)n(C[C@@H](O)CO)cnc21 [TAK-733]', 'Membrane-associated tyrosine- and threonine-specific cdc2-inhibitory kinase (Homo sapiens)', 'Kd', '> 30 µM (inactive)');

Moving on to another compound below.
Could you share what Kd was measured for O=c1[nH]c([C@@H]2CCCN2)nc2c1oc1ccc(Cl)cc12 , tested on Membrane-associated tyrosine- and threonine-specific cdc2-inhibitory kinase (Homo sapiens)?; further: in the data inactive means no Kd found up to 30 µM
> 30 µM (inactive)

====

assayedTarget: Glycogen phosphorylase, liver form (Homo sapiens, UniProt P06737); further: in the data inactive means no Kd found up to 30 µM
Sequence (P06737 whole entry): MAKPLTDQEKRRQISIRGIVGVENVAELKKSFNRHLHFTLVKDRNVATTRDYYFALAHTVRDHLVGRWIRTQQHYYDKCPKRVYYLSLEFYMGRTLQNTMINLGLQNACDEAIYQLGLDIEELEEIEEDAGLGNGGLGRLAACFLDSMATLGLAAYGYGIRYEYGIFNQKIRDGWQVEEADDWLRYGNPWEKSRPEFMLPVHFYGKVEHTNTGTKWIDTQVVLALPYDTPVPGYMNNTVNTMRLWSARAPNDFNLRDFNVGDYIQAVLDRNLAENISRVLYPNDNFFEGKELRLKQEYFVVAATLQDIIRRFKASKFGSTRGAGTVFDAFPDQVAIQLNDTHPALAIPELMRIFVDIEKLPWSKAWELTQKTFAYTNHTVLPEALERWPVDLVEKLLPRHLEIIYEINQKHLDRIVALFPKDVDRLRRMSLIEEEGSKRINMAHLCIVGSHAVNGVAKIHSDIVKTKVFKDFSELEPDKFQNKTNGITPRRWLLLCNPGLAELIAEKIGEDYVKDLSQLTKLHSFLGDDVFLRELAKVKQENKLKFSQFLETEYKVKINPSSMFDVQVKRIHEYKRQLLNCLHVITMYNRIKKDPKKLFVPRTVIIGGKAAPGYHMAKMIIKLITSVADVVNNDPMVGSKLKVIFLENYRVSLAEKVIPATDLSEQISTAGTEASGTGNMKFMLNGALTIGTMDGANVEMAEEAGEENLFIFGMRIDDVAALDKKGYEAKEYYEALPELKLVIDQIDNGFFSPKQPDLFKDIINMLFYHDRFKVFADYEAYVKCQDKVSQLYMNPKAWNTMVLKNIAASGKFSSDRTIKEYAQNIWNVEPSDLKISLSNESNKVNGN
Assay type: subcellular, K-562, COLO 205, SK-N-BE(2) and MV-4-11, Cell lysate
measurementParameters: read-out: Kd apparent
Activity calls are given as the source filed them.
The molecules listed here are annotated with their Kd.

INSERT INTO measurements (molecule, reportedmeasurement) VALUES
  ('Cn1cc(-c2[nH]c3cc(NC(=O)[C@H](N)C4CCCCC4)cc4c3c2C=NNC4=O)cn1', '> 30 µM (inactive)'),
  ('CCc1cc2c(cc1N1CCC(N3CCOCC3)CC1)C(C)(C)c1[nH]c3cc(C#N)ccc3c1C2=O', '> 30 µM (inactive)'),
  ('CC1(COc2ccc3c(c2)ncn3-c2ccc3cccc(N4CCC(N)CC4)c3n2)COC1', '> 30 µM (inactive)'),
  ('CN1CCN(c2nc(C3=C(c4c[nH]c5ccccc45)C(=O)NC3=O)c3ccccc3n2)CC1', '> 30 µM (inactive)'),
  ('CC1(C)CNc2cc(NC(=O)c3cccnc3NCc3ccncc3)ccc21', '> 30 µM (inactive)'),
  ('COc1cc2ncnc(Nc3ccc(F)c(Cl)c3)c2cc1NC(=O)/C=C/CN1CCCCC1 [DACOMITINIB ANHYDROUS]', '> 30 µM (inactive)');

Look up Kd for this molecule: COc1ccc2c(OCc3nnc4ccc(-c5ccccc5)nn34)ccnc2c1
> 30 µM (inactive)

Requested read-out: Kd. Entry: Cc1cc(Nc2nc(N[C@@H](C)c3ncc(F)cn3)ncc2Cl)n[nH]1
> 30 µM (inactive)

====

assayedTarget: Serine/threonine-protein kinase MRCK alpha (Homo sapiens, UniProt Q5VT25); further: in the data inactive means no Kd found up to 30 µM
Sequence (Q5VT25 whole entry): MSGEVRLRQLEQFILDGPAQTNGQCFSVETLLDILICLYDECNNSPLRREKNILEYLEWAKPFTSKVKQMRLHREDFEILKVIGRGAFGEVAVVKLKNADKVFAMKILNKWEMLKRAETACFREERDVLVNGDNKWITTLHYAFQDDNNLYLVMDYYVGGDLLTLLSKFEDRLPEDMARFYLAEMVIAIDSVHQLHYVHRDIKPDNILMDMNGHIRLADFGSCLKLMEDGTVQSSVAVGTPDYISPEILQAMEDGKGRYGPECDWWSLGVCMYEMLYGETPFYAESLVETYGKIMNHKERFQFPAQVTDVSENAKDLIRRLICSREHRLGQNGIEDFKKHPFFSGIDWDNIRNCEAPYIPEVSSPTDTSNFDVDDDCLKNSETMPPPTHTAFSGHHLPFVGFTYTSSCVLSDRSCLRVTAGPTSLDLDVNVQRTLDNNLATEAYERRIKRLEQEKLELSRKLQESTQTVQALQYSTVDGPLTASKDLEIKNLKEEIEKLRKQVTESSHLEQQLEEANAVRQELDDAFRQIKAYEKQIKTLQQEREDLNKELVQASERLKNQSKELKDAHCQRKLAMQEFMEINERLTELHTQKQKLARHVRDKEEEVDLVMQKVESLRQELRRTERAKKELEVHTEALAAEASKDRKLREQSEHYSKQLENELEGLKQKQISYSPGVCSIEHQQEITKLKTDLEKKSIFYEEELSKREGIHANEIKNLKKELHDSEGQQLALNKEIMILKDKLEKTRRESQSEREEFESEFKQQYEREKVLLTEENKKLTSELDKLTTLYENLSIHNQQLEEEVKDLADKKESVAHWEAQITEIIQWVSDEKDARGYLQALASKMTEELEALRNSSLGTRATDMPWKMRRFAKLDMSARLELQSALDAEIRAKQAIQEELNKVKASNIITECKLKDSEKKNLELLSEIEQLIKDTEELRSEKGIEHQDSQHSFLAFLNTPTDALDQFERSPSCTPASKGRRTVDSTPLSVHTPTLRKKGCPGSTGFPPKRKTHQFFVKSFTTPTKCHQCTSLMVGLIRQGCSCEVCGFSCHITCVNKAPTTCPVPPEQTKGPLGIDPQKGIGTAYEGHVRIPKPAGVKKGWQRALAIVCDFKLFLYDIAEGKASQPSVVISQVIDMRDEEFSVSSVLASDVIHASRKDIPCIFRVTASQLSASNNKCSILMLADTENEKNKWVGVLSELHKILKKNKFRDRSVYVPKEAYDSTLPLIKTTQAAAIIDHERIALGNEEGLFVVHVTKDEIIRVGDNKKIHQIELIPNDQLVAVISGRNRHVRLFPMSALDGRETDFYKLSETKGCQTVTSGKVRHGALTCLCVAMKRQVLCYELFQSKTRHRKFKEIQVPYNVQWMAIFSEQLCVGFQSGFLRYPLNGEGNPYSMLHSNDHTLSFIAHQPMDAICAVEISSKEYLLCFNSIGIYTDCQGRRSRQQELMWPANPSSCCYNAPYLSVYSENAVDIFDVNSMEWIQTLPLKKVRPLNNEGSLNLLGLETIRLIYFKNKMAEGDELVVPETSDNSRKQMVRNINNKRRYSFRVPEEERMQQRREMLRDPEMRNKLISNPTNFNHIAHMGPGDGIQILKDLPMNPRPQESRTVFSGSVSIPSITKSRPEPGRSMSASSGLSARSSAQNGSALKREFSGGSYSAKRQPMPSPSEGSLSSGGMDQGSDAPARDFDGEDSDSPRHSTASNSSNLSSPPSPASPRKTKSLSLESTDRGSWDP
The source made the active and inactive calls.
Choose the fitting class; nothing outside 1.0 = active, 0.0 = inactive is accepted.

INSERT INTO assay_data (cpdsmiles, labelvalue) VALUES
  ('Cc1cc(Nc2nc(N[C@@H](C)c3ncc(F)cn3)ncc2Cl)n[nH]1', 0.0);

Given CN1CCN(c2nc(C3=C(c4c[nH]c5ccccc45)C(=O)NC3=O)c3ccccc3n2)CC1 , state the outcome it received in this test.
0.0

Tell me the assay call for CC[C@@](C)(Nc1ccnc(-c2c[nH]c3ncccc23)n1)C(=O)NCC(F)(F)F please.
1.0

Outcome logged for NC[C@@](O)(c1ccc(Cl)cc1)c1ccc(-c2cn[nH]c2)cc1 in this assay:
0.0

// return assay outcome for COc1ccc2c(OCc3nnc4ccc(-c5ccccc5)nn34)ccnc2c1
0.0

====

// Kd collected for Serine/threonine-protein kinase N3 (Homo sapiens)
Activity calls are given as the source filed them.

Completed entries (count: 2):
INSERT INTO measurements (compound, reportedmeasurement) VALUES
  ('CNC(=O)c1cc(COc2nnc(Nc3ccc(Cl)cc3)c3ccoc23)ccn1 [TELATINIB]', '> 30 µM (inactive)'),
  ('C#Cc1cccc(Nc2ncnc3cc4c(cc23)OCCOCCOCCO4)c1 [ICOTINIB]', '> 30 µM (inactive)');

API: value(readout= Kd, system= Serine/threonine-protein kinase N3 (Homo sapiens), query= O=S(=O)(c1cccc2c(O)nccc12)N1CCCNCC1 [HYDROXYFASUDIL] ); further: in the data inactive means no Kd found up to 30 µM
> 30 µM (inactive)

API: value(readout= Kd, system= Serine/threonine-protein kinase N3 (Homo sapiens), query= Cn1cnc2c(F)c(Nc3ccc(Br)cc3Cl)c(C(=O)NOCCO)cc21 [SELUMETINIB] ); further: in the data inactive means no Kd found up to 30 µM
> 30 µM (inactive)

Give recorded Kd with Serine/threonine-protein kinase N3 (Homo sapiens) for the following compound: CNC(=O)c1ccc(Nc2ncc(C(F)(F)F)c(NCc3nccnc3N(C)S(C)(=O)=O)n2)cc1 [DEFACTINIB]
Sequence (Q6P5Z2 whole entry): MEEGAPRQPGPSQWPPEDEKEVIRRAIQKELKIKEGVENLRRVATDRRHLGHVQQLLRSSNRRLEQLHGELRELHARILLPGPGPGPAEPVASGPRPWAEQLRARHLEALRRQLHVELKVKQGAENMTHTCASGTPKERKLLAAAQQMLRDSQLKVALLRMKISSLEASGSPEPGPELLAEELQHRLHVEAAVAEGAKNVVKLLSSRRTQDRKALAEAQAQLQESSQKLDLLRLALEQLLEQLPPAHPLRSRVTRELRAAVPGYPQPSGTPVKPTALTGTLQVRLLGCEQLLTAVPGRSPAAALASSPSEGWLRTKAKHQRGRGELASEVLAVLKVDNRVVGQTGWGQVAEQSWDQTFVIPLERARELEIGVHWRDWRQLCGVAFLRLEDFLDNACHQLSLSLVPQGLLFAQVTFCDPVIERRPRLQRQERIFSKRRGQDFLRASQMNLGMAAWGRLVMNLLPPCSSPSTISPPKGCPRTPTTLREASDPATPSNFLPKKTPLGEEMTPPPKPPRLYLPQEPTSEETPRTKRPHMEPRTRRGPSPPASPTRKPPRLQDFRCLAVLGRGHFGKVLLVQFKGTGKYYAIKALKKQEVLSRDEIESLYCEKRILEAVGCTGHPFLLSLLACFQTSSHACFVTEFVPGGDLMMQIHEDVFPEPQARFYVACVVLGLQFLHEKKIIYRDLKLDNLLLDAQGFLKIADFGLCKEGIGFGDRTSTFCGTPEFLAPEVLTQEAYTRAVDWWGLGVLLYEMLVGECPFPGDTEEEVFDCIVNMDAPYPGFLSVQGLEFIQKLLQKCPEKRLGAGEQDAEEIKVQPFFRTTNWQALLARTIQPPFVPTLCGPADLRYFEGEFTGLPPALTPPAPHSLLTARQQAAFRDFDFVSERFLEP
> 30 µM (inactive)

Reported Kd for Serine/threonine-protein kinase N3 (Homo sapiens), given NC(=O)c1ccc(N(C(N)=O)c2c(F)cccc2F)nc1-c1ccc(F)cc1F [VX-702] ?
> 30 µM (inactive)

Serine/threonine-protein kinase N3 (Homo sapiens) / Kd / CC(C)(O)CC(=O)NCCn1ccc2ncnc(Nc3ccc(Oc4cccc(C(F)(F)F)c4)c(Cl)c3)c21 [TAK-285] : value?; further: in the data inactive means no Kd found up to 30 µM
> 30 µM (inactive)

Recall the recorded Kd for Cc1ccc(C(=O)Nc2ccc(Oc3cc4cnn(C)c4cc3-c3cn[nH]c3)c(F)c2)c(=O)n1-c1ccc(F)cc1 [MERESTINIB] with Serine/threonine-protein kinase N3 (Homo sapiens) and state it.
> 30 µM (inactive)

Please provide the recorded Kd for S=C(NCc1ccc2c(c1)OCO2)N1CCN(c2ncnc3c2oc2ccccc23)CC1 [AMUVATINIB] , tested on Serine/threonine-protein kinase N3 (Homo sapiens). Further: in the data inactive means no Kd found up to 30 µM.
> 30 µM (inactive)

# get_value(readout= Kd, system= Serine/threonine-protein kinase N3 (Homo sapiens)) for COc1cc2c(Oc3ccc4[nH]c(C)cc4c3F)ncnc2cc1OCCCN1CCCC1 [CEDIRANIB]; further: in the data inactive means no Kd found up to 30 µM
> 30 µM (inactive)

Give recorded Kd with Serine/threonine-protein kinase N3 (Homo sapiens) for the following compound: C=CCn1c(=O)c2cnc(Nc3ccc(N4CCN(C)CC4)cc3)nc2n1-c1cccc(C(C)(C)O)n1 [ADAVOSERTIB]
> 30 µM (inactive)

Give Kd (Serine/threonine-protein kinase N3 (Homo sapiens)) of the following compound: CN1CCN(c2nc(C3=C(c4c[nH]c5ccccc45)C(=O)NC3=O)c3ccccc3n2)CC1 [SOTRASTAURIN]
> 30 µM (inactive)

Lab note: need Kd with Serine/threonine-protein kinase N3 (Homo sapiens) for entry COc1cc2c(N3CCN(C(=O)Nc4ccc(OC(C)C)cc4)CC3)ncnc2cc1OCCCN1CCCCC1 [TANDUTINIB] , please look it up.
> 30 µM (inactive)

State its Kd on Serine/threonine-protein kinase N3 (Homo sapiens): Cc1cc(Nc2nc(N[C@@H](C)c3ncc(F)cn3)ncc2Cl)n[nH]1 [AZD-1480]
> 30 µM (inactive)

Reported Kd for Serine/threonine-protein kinase N3 (Homo sapiens), given Cn1cc(-c2[nH]c3cc(NC(=O)[C@H](N)C4CCCCC4)cc4c3c2C=NNC4=O)cn1 ?
> 30 µM (inactive)

Reference source: ChEMBL document CHEMBL3991601
